- tested_on: T1, human CD33 Fc fusion protein (human, UniProt P20138 18-259)
- T1 construct: also called hCD33-Fc; human CD33/Fc chimera (R&D Systems)
- assay_text: RBC adhesion to plate-bound CD33-Fc; antibody 0.5 ug/ml;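 note: Plate-coated CD33-Fc preincubated 1 h with antibody, then red blood cells added for 1 h at room temperature, adherent cells lysed and quantified via peroxidase activity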
attribute_measured: Percent RBC Binding to CD33 (%)
Express the result in % but write the number alone.

Query :: Specify reported Percent RBC Binding to CD33 for the binder shown: C-73 (antibody, V domains shown, human IgG1) VH: QVQLVESGGGVVQPGRSLRLSCAASGFTFSSYGMHWVRQAPGKGLEWVAVIWYDGSNKYYADSVKGRFTISRDNSKNTLYLQMNSLRAEDTAVYYCARGTNAYGTPRDFDLWGRGTLVTVSS VL: DIQMTQSPSSLSASVGDRVTITCRASQSISSYLNWYQQKPGKAPKLLIYAASSLQSGVPSRFSGSGSGTDFTLTISSLQPEDFATYYCQQLSDTPITFGGGTKVEIK
Result :: 29.8

Query :: Quickly give me recorded Percent RBC Binding to CD33 for C-33 (antibody, V domains shown, human IgG1) VH: EVQLVESGGGLVQPGGSLRLSCAASGFTFSSYWMSWVRQAPGKGLEWVANIKSDGSEKYYVDSVKGRFTISRDNAKNSLYLQMNSLRAEDTAVYYCAREGRPRLGYAAFDIWGQGTMVTVSS VL: DIQMTQSPSSLSASVGDRVTITCRASQSISSYLNWYQQKPGKAPKLLIYAASSLQSGVPSRFSGSGSGTDFTLTISSLQPEDFATYYCQQQYDLPITFGGGTKVEIK
Result :: 9.36

Query :: Supply reported Percent RBC Binding to CD33 belonging to this binder: C-56 (antibody, V domains shown, human IgG1) VH: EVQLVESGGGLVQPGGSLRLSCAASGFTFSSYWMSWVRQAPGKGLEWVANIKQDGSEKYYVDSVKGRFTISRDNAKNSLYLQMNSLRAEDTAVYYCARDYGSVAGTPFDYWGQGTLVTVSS VL: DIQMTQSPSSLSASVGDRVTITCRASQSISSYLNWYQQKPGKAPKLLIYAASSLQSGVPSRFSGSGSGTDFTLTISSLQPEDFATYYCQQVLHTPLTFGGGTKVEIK
Result :: 15.7
